tested target: human acetyl-CoA carboxylase 2 (ACC2) (Homo sapiens)
Construct: The cDNA encoding amino acids 144 to 2458 of human acetyl-CoA carboxylase 2; made in house; host or cells: Sf9 insect cells (baculovirus, pFastBac1)
run description: Acetyl-CoA carboxylase enzyme assay (malonyl-CoA formation by LC/MS/MS)
Type: biochemical
condition parameters: recombinant human ACC2 (aa 144-2458); read-out: IC50 ACC2
Define the label as y when IC50 is strictly less than 400 nM and as n in all remaining cases.

Consider the worked cases shown below.
molecule	group label
Cc1ccccc1-c1cc2ccc(S(=O)(=O)N[C@H]3CC[C@H](C(=O)N4CCOC[C@@H]4C4CC4)CC3)cc2[nH]1	y
CC(=O)c1ccc(Nc2nc3cc(S(=O)(=O)N[C@H]4CC[C@H](C(=O)N[C@H](C)c5ccccc5)CC4)ccc3[nH]2)cc1	y
C[C@@H](NC(=O)[C@H]1CC[C@H](NS(=O)(=O)c2cnc3nc(-c4ccccc4)sc3c2)CC1)c1ccc(F)cc1	n

Field: below-cutoff. Rule: recorded IC50 strictly less than 400 nM. Subject: C[C@H]1COCCN1C(=O)[C@H]1CC[C@H](NS(=O)(=O)c2ccc3c(Cl)c(-c4ccccc4)[nH]c3c2)CC1 y

Next molecule up: C[C@@H](NC(=O)[C@H]1CC[C@@H](NS(=O)(=O)c2cnc3c(c2)NCC(C)(C)CN3)CC1)c1ccc(F)cc1 n

Next molecule up: Cn1c(-c2ccc(CCC(=O)O)cc2)cc2ccc(S(=O)(=O)N[C@H]3CC[C@H](C(=O)N4CCC[C@@H]4C(F)(F)F)CC3)cc21 y

Next molecule up: C[C@@H](NC(=O)[C@H]1CC[C@H](NS(=O)(=O)c2cnc3c(c2)N(C)CCO3)CC1)c1ccc(F)cc1 y

Next molecule up: C[C@H]1COCCN1C(=O)[C@H]1CC[C@H](NS(=O)(=O)c2ccc3c(C#N)c(C4CC4)n(C)c3c2)CC1 [Example 421] y

Next molecule up: C[C@@H](NC(=O)[C@H]1CC[C@H](NS(=O)(=O)c2ccc3cc(-c4ccccc4)[nH]c3c2)CC1)c1ccc(F)cc1 y

###

tested target: human acetyl-CoA carboxylase 2 (ACC2) (Homo sapiens)
Construct: The cDNA encoding amino acids 144 to 2458 of human acetyl-CoA carboxylase 2; made in house; host or cells: Sf9 insect cells (baculovirus, pFastBac1)
run description: Acetyl-CoA carboxylase enzyme assay (malonyl-CoA formation by LC/MS/MS)
Assay type: biochemical
condition parameters: recombinant human ACC2 (aa 144-2458); read-out: IC50 ACC2
Define the label as label 1 when IC50 is strictly less than 80 nM and as label 0 in all remaining cases.

Consider the worked cases shown below.
compound	group label
C[C@@H](NC(=O)[C@H]1CC[C@H](NS(=O)(=O)c2ccc3c(c2)NC(=O)CC3(C)C)CC1)c1ccc(F)cc1 [Example 195]	label 0
C[C@@H](NC(=O)[C@H]1CC[C@H](NS(=O)(=O)c2cnc3c(c2)N(CC(F)(F)F)CCN3C)CC1)c1ccc(F)cc1 [Example 135]	label 0
O=C(N[C@H](CO)c1ccccc1)[C@H]1CC[C@H](NS(=O)(=O)c2ccc3[nH]c(-c4ccccc4)nc3c2)CC1 [Example 579]	label 1
CC(C)COC(=O)N1CCNc2ncc(S(=O)(=O)N[C@H]3CC[C@H](C(=O)N[C@H](C)c4ccc(F)cc4)CC3)cc21 [Example 200]	label 1
C[C@@H](NC(=O)[C@H]1CC[C@H](NS(=O)(=O)c2ccc3c(c2)nc(-c2ccccc2)n3C)CC1)c1ccc(F)cc1 [Example 4]	label 1

Now take the following compound into account.
Field: below-cutoff. Rule: recorded IC50 strictly less than 80 nM. Subject: C[C@@H](NC(=O)C1CCC(NS(=O)(=O)c2cnc3c(c2)N[C@@H](Cc2ccccc2)CS3)CC1)c1ccc(F)cc1 (stereo partly drawn) [Example 189] label 1

###

tested target: human acetyl-CoA carboxylase 2 (ACC2) (Homo sapiens)
Construct: The cDNA encoding amino acids 144 to 2458 of human acetyl-CoA carboxylase 2; made in house; host or cells: Sf9 insect cells (baculovirus, pFastBac1)
run description: Acetyl-CoA carboxylase enzyme assay (malonyl-CoA formation by LC/MS/MS)
Format: biochemical
condition parameters: recombinant human ACC2 (aa 144-2458); read-out: IC50 ACC2
pIC50: −log10 of the molar value.
I would appreciate it if you labelled entries True when pIC50 is 6 or higher, otherwise False.

compound	group label
CC(C)OC(=O)c1ccc(NS(=O)(=O)c2ccc3[nH]c(Nc4ccc(C#N)cc4)nc3c2)cc1	True

pIC50 >= 6 for C[C@@H](NC(=O)C1CCC(NS(=O)(=O)c2ccc3[nH]c(-c4ccccc4)nc3c2)CC1)c1ccccc1 (stereo partly shown) ? False

Next compound up: CC(C)N(C)C(=O)[C@H]1CC[C@H](NS(=O)(=O)c2ccc3[nH]c(-c4cccnc4)cc3c2)CC1 True

Next compound up: C[C@@H](NC(=O)[C@H]1CC[C@H](NS(=O)(=O)c2ccc3nc(C(F)(F)F)cn3c2)CC1)c1ccc(F)cc1 False

Next compound up: C[C@@H](NC(=O)[C@H]1CC[C@H](NS(=O)(=O)c2ccc3nc(-c4ccccc4)sc3c2)CC1)c1ccc(F)cc1 True

Next compound up: CC(C)N(C)C(=O)[C@H]1CC[C@H](NS(=O)(=O)c2ccc3[nH]c(Nc4ccccc4)nc3c2)CC1 True

Next compound up: C[C@H]1COCCN1C(=O)[C@H]1CC[C@H](NS(=O)(=O)c2ccc3cc(-c4ccccc4)n(C)c3c2)CC1 True

###

Measured pIC50 values are reported for all entries that follow.
tested target: human acetyl-CoA carboxylase 2 (ACC2) (Homo sapiens, UniProt O00763)
Construct: The cDNA encoding amino acids 144 to 2458 of human acetyl-CoA carboxylase 2; made in house; host or cells: Sf9 insect cells (baculovirus, pFastBac1)
Sequence (O00763 144-2458): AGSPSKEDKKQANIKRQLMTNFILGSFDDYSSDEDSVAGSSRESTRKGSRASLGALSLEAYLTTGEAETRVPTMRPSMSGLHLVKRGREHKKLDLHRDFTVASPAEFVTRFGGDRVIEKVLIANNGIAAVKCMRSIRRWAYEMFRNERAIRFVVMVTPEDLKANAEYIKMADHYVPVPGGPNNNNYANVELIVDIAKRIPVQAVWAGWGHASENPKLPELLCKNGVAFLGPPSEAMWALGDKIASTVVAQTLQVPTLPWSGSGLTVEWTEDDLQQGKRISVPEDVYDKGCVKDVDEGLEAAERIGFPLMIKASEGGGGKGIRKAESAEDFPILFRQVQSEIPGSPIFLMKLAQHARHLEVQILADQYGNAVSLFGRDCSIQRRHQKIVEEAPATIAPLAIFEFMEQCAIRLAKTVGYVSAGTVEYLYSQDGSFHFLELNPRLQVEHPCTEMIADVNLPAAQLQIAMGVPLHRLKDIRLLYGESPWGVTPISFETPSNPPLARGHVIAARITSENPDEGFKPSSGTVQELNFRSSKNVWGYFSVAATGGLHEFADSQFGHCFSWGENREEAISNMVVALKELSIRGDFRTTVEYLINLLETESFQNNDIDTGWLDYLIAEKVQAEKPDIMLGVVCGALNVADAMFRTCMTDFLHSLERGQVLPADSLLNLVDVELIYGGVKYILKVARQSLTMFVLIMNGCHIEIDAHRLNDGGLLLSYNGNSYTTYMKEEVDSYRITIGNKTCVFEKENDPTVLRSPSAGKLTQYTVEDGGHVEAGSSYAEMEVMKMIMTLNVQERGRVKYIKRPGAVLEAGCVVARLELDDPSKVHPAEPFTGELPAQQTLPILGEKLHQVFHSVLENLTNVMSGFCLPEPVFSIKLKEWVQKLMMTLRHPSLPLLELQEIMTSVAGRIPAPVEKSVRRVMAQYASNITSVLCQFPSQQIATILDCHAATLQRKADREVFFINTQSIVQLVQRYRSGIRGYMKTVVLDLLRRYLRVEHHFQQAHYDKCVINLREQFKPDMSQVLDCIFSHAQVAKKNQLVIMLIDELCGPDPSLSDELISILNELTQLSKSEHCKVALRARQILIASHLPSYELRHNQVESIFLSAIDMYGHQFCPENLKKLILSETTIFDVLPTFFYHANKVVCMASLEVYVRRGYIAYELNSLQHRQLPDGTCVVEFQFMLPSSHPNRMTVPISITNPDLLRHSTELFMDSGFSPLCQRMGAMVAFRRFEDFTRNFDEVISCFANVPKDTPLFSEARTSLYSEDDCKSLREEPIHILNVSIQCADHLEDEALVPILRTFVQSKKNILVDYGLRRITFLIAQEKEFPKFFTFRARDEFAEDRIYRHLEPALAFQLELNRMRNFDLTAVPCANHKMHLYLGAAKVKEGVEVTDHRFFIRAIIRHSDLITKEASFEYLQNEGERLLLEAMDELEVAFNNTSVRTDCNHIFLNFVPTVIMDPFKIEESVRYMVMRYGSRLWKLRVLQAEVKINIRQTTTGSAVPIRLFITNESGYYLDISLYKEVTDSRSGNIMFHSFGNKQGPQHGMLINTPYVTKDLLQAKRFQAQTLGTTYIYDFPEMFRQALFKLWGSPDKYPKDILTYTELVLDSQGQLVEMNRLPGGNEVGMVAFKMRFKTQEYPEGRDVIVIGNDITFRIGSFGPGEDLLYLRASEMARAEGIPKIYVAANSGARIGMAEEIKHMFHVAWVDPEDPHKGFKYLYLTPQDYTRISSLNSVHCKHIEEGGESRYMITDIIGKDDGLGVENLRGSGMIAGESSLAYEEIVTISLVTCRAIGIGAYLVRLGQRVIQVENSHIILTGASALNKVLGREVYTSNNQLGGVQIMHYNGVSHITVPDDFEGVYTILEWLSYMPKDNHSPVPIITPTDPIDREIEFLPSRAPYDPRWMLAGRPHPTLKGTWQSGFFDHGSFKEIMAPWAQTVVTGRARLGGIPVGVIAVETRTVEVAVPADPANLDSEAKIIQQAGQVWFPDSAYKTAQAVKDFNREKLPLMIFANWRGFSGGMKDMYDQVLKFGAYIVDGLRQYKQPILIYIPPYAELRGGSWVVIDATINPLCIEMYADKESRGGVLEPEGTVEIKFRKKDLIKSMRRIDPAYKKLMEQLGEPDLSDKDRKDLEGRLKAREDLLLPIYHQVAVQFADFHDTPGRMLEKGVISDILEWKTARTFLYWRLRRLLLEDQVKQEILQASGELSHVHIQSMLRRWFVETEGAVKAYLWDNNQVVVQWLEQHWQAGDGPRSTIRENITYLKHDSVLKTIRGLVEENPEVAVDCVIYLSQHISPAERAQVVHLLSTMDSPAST
run description: Acetyl-CoA carboxylase enzyme assay (malonyl-CoA formation by LC/MS/MS)
Assay type: biochemical
condition parameters: recombinant human ACC2 (aa 144-2458); read-out: IC50 ACC2
Remember, pIC50 is on a log scale: it is -log10 of the molar concentration.

Solved entries (count: 6):
compound structure	pIC50
CC(C)OC(=O)c1ccc(NS(=O)(=O)c2ccc3nc(-c4ccc(OC(C)C)cc4)[nH]c3c2)cc1	5.75
COc1ccc(Nc2nc3cc(S(=O)(=O)Nc4ccc(C(=O)OC(C)C)cc4)ccc3[nH]2)cc1	6.33
C[C@@H](NC(=O)[C@H]1CC[C@H](NS(=O)(=O)c2ccc3nc(CCC(=O)O)ccc3c2)CC1)c1ccc(F)cc1	6.31
O=C([C@H]1CC[C@H](NS(=O)(=O)c2ccc3[nH]c(-c4ccc(N5CCNCC5)cc4)nc3c2)CC1)N1CCOCC1	7.70
COCCCNC(=O)[C@H]1CC[C@H](NS(=O)(=O)c2ccc3[nH]c(-c4ccccc4)nc3c2)CC1	5.87
C[C@@H](NC(=O)[C@H]1CC[C@H](NS(=O)(=O)c2ccc3c(Cl)c[nH]c3c2)CC1)c1ccc(F)cc1	7.70

Suppose we examine the compound Cc1cc2c(cc1S(=O)(=O)N[C@H]1CC[C@H](C(=O)N[C@H](C)c3ccc(F)cc3)CC1)NCCC2 ; what pIC50 value has been reported? 6.43

Next compound up: COC[C@@H](NC(=O)[C@H]1CC[C@H](NS(=O)(=O)c2ccc3cc(C4CC4)n(C)c3c2)CC1)c1ccccc1 8.00

Next compound up: C[C@@H](NC(=O)[C@H]1CC[C@H](NS(=O)(=O)c2ccc3ccccc3c2)CC1)c1cccnc1 6.84

Next compound up: C[C@@H](NC(=O)[C@H]1CC[C@H](NS(=O)(=O)c2ccc3nc(OCCN(C)C)ccc3c2)CC1)c1ccc(F)cc1 7.30

Next compound up: CCCN(C)C(=O)[C@H]1CC[C@H](NS(=O)(=O)c2ccc3[nH]c(Nc4ccccc4)nc3c2)CC1 6.93

###

tested target: human acetyl-CoA carboxylase 2 (ACC2) (Homo sapiens)
Construct: The cDNA encoding amino acids 144 to 2458 of human acetyl-CoA carboxylase 2; made in house; host or cells: Sf9 insect cells (baculovirus, pFastBac1)
run description: Acetyl-CoA carboxylase enzyme assay (malonyl-CoA formation by LC/MS/MS)
Assay type: biochemical
condition parameters: recombinant human ACC2 (aa 144-2458); read-out: IC50 ACC2
Measured pIC50 values are reported for all entries that follow.
Remember, pIC50 is on a log scale: it is -log10 of the molar concentration.

compound	pIC50
O=C([C@H]1CC[C@H](NS(=O)(=O)c2cnc3ccccc3c2)CC1)N1CCCC1C(F)(F)F (some centres unmarked)	4.48
CC1(C)CN(C(=O)[C@H]2CC[C@H](NS(=O)(=O)c3ccc4cc(-c5ccccc5)[nH]c4c3)CC2)CCO1	7.52
CC(=O)c1ccc(Nc2nc3cc(S(=O)(=O)Nc4ccc(C(=O)OC(C)C)cc4)ccc3[nH]2)cc1	7.12
CC(C)OC(=O)[C@H]1CC[C@H](NS(=O)(=O)c2ccc3[nH]c(-c4ccc(C(C)O)cc4)nc3c2)CC1 (some centres unmarked)	7.60
C[C@@H](NC(=O)[C@H]1CC[C@H](NS(=O)(=O)c2ccc3cc(CCCO)[nH]c3c2)CC1)c1ccc(F)cc1	7.60

Suppose we examine the compound COC(=O)[C@@H](NC(=O)[C@H]1CC[C@H](NS(=O)(=O)c2ccc3cc(-c4ccccc4)n(C)c3c2)CC1)c1ccccc1 ; what pIC50 value has been reported? 7.02

Next compound up: CC(C)(C)c1nnc(-c2ccc(NS(=O)(=O)c3ccc4nc(-c5ccccc5)[nH]c4c3)cc2)o1 5.54

Next compound up: CC(C)CCNC(=O)[C@H]1CC[C@H](NS(=O)(=O)c2ccc3[nH]c(-c4ccccc4)nc3c2)CC1 6.11

Next compound up: C[C@H]1CCCN1C(=O)[C@H]1CC[C@H](NS(=O)(=O)c2ccc3ccccc3c2)CC1 6.02

Next compound up: CC(C)(C)c1nnc([C@H]2CC[C@H](NS(=O)(=O)c3ccc4[nH]c(Nc5ccccc5)nc4c3)CC2)o1 6.79

Next compound up: C[C@@H]1CN(C(=O)[C@H]2CC[C@H](NS(=O)(=O)c3ccc4cc(-c5ccccc5)[nH]c4c3)CC2)C[C@H](C)O1 7.82

Next compound up: Cn1c(-c2ccc(CO)cc2)cc2ccc(S(=O)(=O)N[C@H]3CC[C@H](C(=O)N4CCN[C@@H](C(F)(F)F)C4)CC3)cc21 7.82

Next compound up: O=C(NC1CC1)[C@H]1CC[C@H](NS(=O)(=O)c2ccc3[nH]c(-c4ccccc4)nc3c2)CC1 6.59
